# Tested on: intestinal alkaline phosphatase [Mus musculus]
# Protocol notes: mouse intestinal phosphatase enzyme activation – biochemical, luminescence, single concentration, confirmation (AID 434970)
# Setup conditions: purified mouse IAP, CDP-Star luminescence, 30 min, at 10 µM; active compounds read low
The campaign covered roughly 11,000 compounds. About 310 (2.8%) were called active. The full list was thinned out, with actives kept by preference.

Molecule | activity change, negative = activation / %
O=C(Nc1ccccc1N1CCN(c2ccccc2)CC1)C12CC3CC(CC(C3)C1)C2 | 7.25
COc1cc(CN(C2CC2)S(=O)(=O)c2ccccc2Br)cc(OC)c1 | -7.4
CCNC(=O)COc1cc(C)c(Cl)c(C)c1 | -0.4
Cc1cnc(-c2nnc(N(C)C(=O)C3CCOC3)s2)cn1 (configuration not stated) | 0.45
NC1=NC2(CCCCC2)N(c2ccc(F)cc2)C(N)=N1 | 4.95
CC(NC(=O)CCSc1nc(-c2ccc3c(c2)OCO3)cc(C(F)(F)F)n1)c1ccccc1 (configuration not stated) | 2.2
COc1ccc(C(=O)Nc2ccccc2C(=O)N/N=C/c2cccc3ccccc23)cc1 | -1.95
